Just for reference, ChEMBL document CHEMBL1139020 is where these values come from.

TEST_SYSTEM: Galectin-3 (Homo sapiens) (UniProt P17931)
Sequence (P17931 whole entry): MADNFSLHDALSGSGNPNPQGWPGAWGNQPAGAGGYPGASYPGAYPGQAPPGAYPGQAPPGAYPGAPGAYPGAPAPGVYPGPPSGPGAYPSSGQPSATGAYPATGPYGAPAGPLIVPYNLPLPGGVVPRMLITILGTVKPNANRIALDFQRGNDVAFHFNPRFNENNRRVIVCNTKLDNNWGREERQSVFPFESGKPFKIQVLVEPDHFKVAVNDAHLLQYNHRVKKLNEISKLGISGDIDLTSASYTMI
EXPERIMENT: Inhibition of Galectin3

MOL_SMILES	COMPARISON_SYMBOL	Activity, mM
CC(=O)OC[C@H]1O[C@@H](Oc2ccccc2[N+](=O)[O-])[C@H](OC(C)=O)[C@@H](OC(C)=O)[C@@H]1O[C@@H]1O[C@H](CO)[C@H](O)[C@H](O)[C@H]1O	=	0.625
CC(=O)OC[C@H]1O[C@@H](Sc2ccc(Br)cc2)[C@H](OC(C)=O)[C@@H](OC(C)=O)[C@@H]1O[C@@H]1O[C@H](CO)[C@H](O)[C@H](O)[C@H]1O	=	0.313
CC(=O)OC[C@H]1O[C@@H](Sc2ccc([N+](=O)[O-])cc2)[C@H](OC(C)=O)[C@@H](OC(C)=O)[C@H]1O	>	5
COc1ccc(S[C@@H]2O[C@H](COC(C)=O)[C@@H](O[C@@H]3O[C@H](CO)[C@H](O)[C@H](O)[C@H]3O)[C@H](OC(C)=O)[C@H]2OC(C)=O)cc1	=	0.313
CC(=O)OC[C@H]1O[C@@H](Sc2ccc3ccccc3c2)[C@H](OC(C)=O)[C@@H](OC(C)=O)[C@@H]1O[C@@H]1O[C@H](CO)[C@H](O)[C@H](O)[C@H]1O	=	0.313
COc1ccc(S[C@@H]2O[C@H](COC(C)=O)[C@H](O)[C@H](OC(C)=O)[C@H]2OC(C)=O)cc1	=	2.5
